Below: a set of entries, each annotated with reported EC50.
Target: hGPR40 (Homo sapiens)
Sequence (O14842 whole entry): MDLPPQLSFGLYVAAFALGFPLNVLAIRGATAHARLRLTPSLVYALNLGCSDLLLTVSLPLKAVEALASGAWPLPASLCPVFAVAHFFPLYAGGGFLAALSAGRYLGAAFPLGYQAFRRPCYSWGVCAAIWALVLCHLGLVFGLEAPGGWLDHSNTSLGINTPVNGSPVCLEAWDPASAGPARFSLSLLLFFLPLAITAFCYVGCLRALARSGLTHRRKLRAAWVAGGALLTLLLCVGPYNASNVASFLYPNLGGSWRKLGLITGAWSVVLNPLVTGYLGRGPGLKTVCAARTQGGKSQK
Assay: GPR40 Inositol Phosphate Turnover (IP1) Assay
Format: cell-based
Parameters: expressed in transfected cells; host or cells: HEK cells stably expressing the aequorin reporter
Conditions: HEK cells stably expressing human GPR40; 0% serum; read-out: hGPR40 IP1 EC50 (0% serum)
quantity: EC50 (nM)

INSERT INTO assay_data (molecule, reading) VALUES
  ('Cc1nc(OCCCS(C)(=O)=O)ccc1-c1cc(COc2cc3c(cn2)[C@H]2[C@@H](C3)[C@@H]2C(=O)O)cc(C(F)(F)F)c1 [Compound 12-8]', 79),
  ('CS(=O)(=O)CCCOc1ccc(-c2ccc(F)c(COc3cc4c(cn3)C3C(C4)C3C(=O)O)c2)c(C(F)(F)F)c1 (stereo not shown) [Compound 10-9]', 8.7),
  ('CC(C)(O)CCCOc1cc(C(F)(F)F)c(-c2cccc(COc3cc4c(cn3)[C@H]3[C@@H](C4)[C@@H]3C(=O)O)c2)cn1 [Compound 21-8]', 6.2),
  ('O=C(O)C1C2Cc3cc(OCc4cc(-c5cccnc5C(F)(F)F)ccc4F)ncc3C21 (stereo not shown) [Compound 22-8]', 75);
